Here, each record is paired with measured IC50 data.
Assay System: Cytochrome P450 3A4 (Homo sapiens)
Sequence (P08684 whole entry): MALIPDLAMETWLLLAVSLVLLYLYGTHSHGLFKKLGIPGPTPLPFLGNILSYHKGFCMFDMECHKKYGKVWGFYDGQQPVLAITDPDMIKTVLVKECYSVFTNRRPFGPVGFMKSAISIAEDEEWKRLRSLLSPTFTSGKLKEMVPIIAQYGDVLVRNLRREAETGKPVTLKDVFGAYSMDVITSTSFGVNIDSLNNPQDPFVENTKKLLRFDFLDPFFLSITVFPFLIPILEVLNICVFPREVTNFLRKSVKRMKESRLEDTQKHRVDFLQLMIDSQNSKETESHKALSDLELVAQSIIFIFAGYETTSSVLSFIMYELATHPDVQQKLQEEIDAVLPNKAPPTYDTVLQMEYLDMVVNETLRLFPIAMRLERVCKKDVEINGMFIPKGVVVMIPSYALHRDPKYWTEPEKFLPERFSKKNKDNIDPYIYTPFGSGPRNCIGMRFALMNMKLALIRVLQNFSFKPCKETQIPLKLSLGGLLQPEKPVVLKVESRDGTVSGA
Experiment Notes: Inhibition of CYP3A4 in human liver microsomes using testosterone as substrate incubated for 30 mins in presence of NADPH by LC-MS/MS analysis
Type: ADME, Microsome

CC(C)(C)c1ccc(-c2nnc(SCc3cc(=O)n4c(c3C3CC3)SCC4C(=O)O)o2)cc1 (racemic)
> 100 µM

Here's the next entry for you.
Enter reported IC50 observed with Cytochrome P450 3A4 (Homo sapiens) for CC(C)(C)c1ccc(-n2cc(-c3cc(=O)n4c(c3C3CC3)SCC4C(=O)O)nn2)cc1 (racemic)
> 100 µM

* * *

Experiment Notes: Apparent permeability across apical to basolateral side in human Caco-2 cells at 2 uM by LC-MS/MS analysis
Assay type: ADME, cell-based
Measurement Type: Papp A→B at 2 µM (×10⁻⁶ cm/s)
Provide only the numeric value, understood in ×10⁻⁶ cm/s.

Record request: Papp A→B at 2 µM value, item CC(C)(C)c1ccc(-c2nnc(SCc3cc(=O)n4c(c3C3CC3)SCC4C(=O)O)o2)cc1 (racemic)
0.88

* * *

Experiment Notes: Therapeutic index, ratio of LD50 for human IMR-90 cells to IC50 for antimycobacterial activity against Mycobacterium tuberculosis Erdman
Type: toxicity
Run Conditions: read-out: TI
Measurement Type: selectivity ratio
Provide a numeric answer; units are not to be included.

Record request: selectivity ratio value, item O=C(O)C1CSc2c(C3CC3)c(-c3cc(-c4ccc5ccccc5c4)no3)cc(=O)n21.c1c[nH]cn1 (racemic)
168

* * *

Experiment Notes: Cytotoxicity against human Calu-3 cells assessed as reduction in cellular ATP level incubated for 72 hrs by celltiter-glo assay
Assay type: toxicity, cell-based
Run Conditions: read-out: LD50
Measurement Type: CC50 at 72 h

Record request: CC50 at 72 h value, item O=C(O)C1CSc2c(C3CC3)c(-c3cc(-c4ccc5ccccc5c4)no3)cc(=O)n21.c1c[nH]cn1 (racemic)
> 250 µM
